- TARGET_UNDER_TEST: Mtb BioA (Mycobacterium tuberculosis, UniProt P9WQ81)
- Sequence (P9WQ81 whole entry): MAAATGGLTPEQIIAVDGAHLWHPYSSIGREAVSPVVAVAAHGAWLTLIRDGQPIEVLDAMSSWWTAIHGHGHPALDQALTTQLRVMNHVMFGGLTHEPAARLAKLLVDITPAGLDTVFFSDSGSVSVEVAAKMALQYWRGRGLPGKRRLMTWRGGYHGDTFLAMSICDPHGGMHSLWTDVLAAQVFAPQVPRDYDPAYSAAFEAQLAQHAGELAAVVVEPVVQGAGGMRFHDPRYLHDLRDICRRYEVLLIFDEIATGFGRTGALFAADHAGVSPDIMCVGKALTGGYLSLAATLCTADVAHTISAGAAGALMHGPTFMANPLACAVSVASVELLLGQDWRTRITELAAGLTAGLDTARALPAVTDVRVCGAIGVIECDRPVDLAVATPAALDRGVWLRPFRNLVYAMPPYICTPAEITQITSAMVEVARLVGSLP
- Type: binding
- CONDITION_NOTES: ITC, 25 °C; from ΔG = ΔH − TΔS
QUANTITY: −TΔS (kcal/mol)
Report the value in kcal/mol with no unit label.

input: Item NC(=O)c1ccc(-n2ccnc2)cc1 : provide −TΔS
output: -0.2

input: Answer with the recorded −TΔS of NCc1nc2ccccc2s1 only.
output: -4.8

input: Output measured −TΔS for this item: CNCc1ccc(Cn2cccn2)cc1
output: 6.2

input: // Input: NC(=O)c1ccc(-c2ccccn2)s1 . Output its −TΔS only.
output: -1.6

input: Give the measured −TΔS for NCc1ccc(Cn2cc(Cl)cn2)cc1
output: 4.3

input: Using known records, supply −TΔS for O=C(c1ccccc1)C1CCNCC1
output: -1.1

input: Read off the recorded −TΔS for CC(=O)Nc1ccc2c(c1)C=CC2=O
output: -3.0

----------
Could you please report measured KA for the items listed next?
- TARGET_UNDER_TEST: Mtb BioA (Mycobacterium tuberculosis)
- Type: binding
- CONDITION_NOTES: ITC, 25 °C, 100 µM BioA, pH 7.5

input: Please indicate recorded KA of NC(=O)c1ccc(-c2ccccn2)s1 measured with Mtb BioA (Mycobacterium tuberculosis).
output: 14.6 ± 1.3 10^4 M^−1

input: Recall the reported KA of NCc1ccc(Cn2cc(Cl)cn2)cc1 on Mtb BioA (Mycobacterium tuberculosis) and write it down.
output: 14.9 ± 1.7 10^4 M^−1

input: # return KA for CNCc1ccc(Cn2cccn2)cc1 , test system: Mtb BioA (Mycobacterium tuberculosis)
output: 8.6 ± 0.1 10^4 M^−1

input: State KA (Mtb BioA (Mycobacterium tuberculosis)) of NCc1nc2ccccc2s1 .
output: 3.3 ± 0.5 10^4 M^−1

input: // fetch KA for CC(=O)Nc1ccc2c(c1)C=CC2=O ; system: Mtb BioA (Mycobacterium tuberculosis)
output: 4.6 ± 0.3 10^4 M^−1

input: System Mtb BioA (Mycobacterium tuberculosis). Read-out KA. Item O=C(c1ccccc1)C1CCNCC1 . Report value.
output: 2.4 ± 0.4 10^4 M^−1

input: Report KA from Mtb BioA (Mycobacterium tuberculosis) testing of NC(=O)c1ccc(-n2ccnc2)cc1
output: 6.8 ± 1.3 10^4 M^−1

----------
- TARGET_UNDER_TEST: Mtb BioA (Mycobacterium tuberculosis, UniProt P9WQ81)
- Assay type: binding
- CONDITION_NOTES: LE = (−ΔG)/N, N = number of non-hydrogen atoms
QUANTITY: LE (ligand efficiency)
Give only the figure.

input: Give LE (ligand efficiency) for NCc1ccc(Cn2cc(Cl)cn2)cc1
output: 0.47

input: Return the recorded LE (ligand efficiency) value; entry: NCc1nc2ccccc2s1
output: 0.55

input: Identify LE (ligand efficiency) associated with the molecule CNCc1ccc(Cn2cccn2)cc1
output: 0.45

input: For the molecule CC(=O)Nc1ccc2c(c1)C=CC2=O , give its reported LE (ligand efficiency).
output: 0.45
